Molecular target: Epidermal Growth Factor Receptor (EGFR), extracellular domain (EGFR-ECD) (Homo sapiens, UniProt P00533)
Construct: full-length EGFR in DiscoverX PathHunter enzyme-complementation cells, EGF-stimulated
Sequence (P00533 25-1210): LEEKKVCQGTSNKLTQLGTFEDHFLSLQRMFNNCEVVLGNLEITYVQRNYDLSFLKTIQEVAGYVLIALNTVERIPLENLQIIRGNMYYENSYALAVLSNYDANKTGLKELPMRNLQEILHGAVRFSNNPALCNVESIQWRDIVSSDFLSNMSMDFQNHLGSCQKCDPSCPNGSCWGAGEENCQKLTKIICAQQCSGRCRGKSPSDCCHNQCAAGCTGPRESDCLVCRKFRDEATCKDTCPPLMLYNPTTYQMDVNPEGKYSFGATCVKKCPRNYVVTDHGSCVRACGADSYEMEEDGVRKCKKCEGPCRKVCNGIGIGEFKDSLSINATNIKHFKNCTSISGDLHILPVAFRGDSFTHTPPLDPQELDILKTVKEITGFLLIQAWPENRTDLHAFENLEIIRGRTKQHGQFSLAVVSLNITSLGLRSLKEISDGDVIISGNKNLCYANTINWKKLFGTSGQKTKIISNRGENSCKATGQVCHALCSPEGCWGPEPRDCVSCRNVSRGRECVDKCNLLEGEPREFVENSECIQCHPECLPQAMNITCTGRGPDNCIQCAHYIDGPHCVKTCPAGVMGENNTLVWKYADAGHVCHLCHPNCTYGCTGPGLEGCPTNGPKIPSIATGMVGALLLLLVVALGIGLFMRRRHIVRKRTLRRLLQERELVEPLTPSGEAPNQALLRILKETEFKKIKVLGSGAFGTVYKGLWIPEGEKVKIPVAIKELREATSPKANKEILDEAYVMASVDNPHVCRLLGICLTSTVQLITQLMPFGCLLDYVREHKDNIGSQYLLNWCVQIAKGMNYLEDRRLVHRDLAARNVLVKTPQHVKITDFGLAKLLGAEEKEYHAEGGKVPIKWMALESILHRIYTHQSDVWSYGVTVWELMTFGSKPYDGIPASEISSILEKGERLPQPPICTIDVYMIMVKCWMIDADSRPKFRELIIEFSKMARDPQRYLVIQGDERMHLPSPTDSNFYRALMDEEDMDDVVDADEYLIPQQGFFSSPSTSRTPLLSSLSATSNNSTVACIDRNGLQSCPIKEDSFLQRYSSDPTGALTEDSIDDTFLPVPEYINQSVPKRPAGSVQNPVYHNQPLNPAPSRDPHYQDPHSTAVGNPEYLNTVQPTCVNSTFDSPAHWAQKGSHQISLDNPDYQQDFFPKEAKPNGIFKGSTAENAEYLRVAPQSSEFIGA
Assay: cell-based
Set-up: DiscoverX PathHunter EGFR dimerization/activation assay, chemiluminescence
Description: The inhibition of the EGFR dimerization assay was conducted using the PathHunter kit following the producer instructions and with cetuximab as a positive control. […] Our interest in kinase inhibitors and the readily availability of such kit prompted us to start a campaign for the discovery of small molecules targeting the extracellular domain of EGFR.
# binarize inhibition at 10 µM: threshold 6% inclusive, high side Satisfied, low side Not satisfied

Q) Please tell me: is the compound FC(F)(F)c1cccc(-c2cc(-c3ccccc3)ncn2)c1 at or over 6% in terms of inhibition at 10 µM?
A) Not satisfied

Q) Please tell me: is the compound Nc1cccc(-c2cc(-c3ccccc3)ncn2)c1 at or over 6% in terms of inhibition at 10 µM?
A) Not satisfied

Q) Please tell me: is the compound CN1CCN(c2ncnc3oc(=O)c(-c4c(Cl)cccc4Cl)cc23)CC1 at or over 6% in terms of inhibition at 10 µM?
A) Not satisfied

Q) Please tell me: is the compound COC(=O)Cc1c(C)c2ccc(O)cc2oc1=O at or over 6% in terms of inhibition at 10 µM?
A) Not satisfied

Q) Please tell me: is the compound O=C(O)Cc1ccc(S(=O)(=O)Nc2ccccc2)cc1 at or over 6% in terms of inhibition at 10 µM?
A) Satisfied

Q) Please tell me: is the compound C=CCOc1cccc2c1C(=O)c1cccc(OCC=C)c1C2=O at or over 6% in terms of inhibition at 10 µM?
A) Not satisfied

Q) Please tell me: is the compound O=c1oc2nc(Nc3cccc(-c4ccccc4)c3)nc(O)c2cc1-c1cccc(Br)c1 at or over 6% in terms of inhibition at 10 µM?
A) Not satisfied

Q) Please tell me: is the compound COc1ccc(/C=C2/N=C(c3ccccc3)OC2=O)cc1 at or over 6% in terms of inhibition at 10 µM?
A) Satisfied

Q) Please tell me: is the compound Cc1c(CC(=O)Nc2cccc(O)c2)c(=O)oc2c(C)c3oc4c(c3cc12)CCCC4 at or over 6% in terms of inhibition at 10 µM?
A) Satisfied

Q) Please tell me: is the compound O=C(O)c1ccc(NS(=O)(=O)c2ccc(Cl)cc2[N+](=O)[O-])cc1O at or over 6% in terms of inhibition at 10 µM?
A) Not satisfied

Q) Please tell me: is the compound O=C(NCc1ccccc1)c1ccc(-c2ccc(-c3ccccc3)cc2O)cc1 at or over 6% in terms of inhibition at 10 µM?
A) Not satisfied

Q) Please tell me: is the compound O=C1Nc2ccccc2/C1=N\c1cccc(C(F)(F)F)c1 at or over 6% in terms of inhibition at 10 µM?
A) Satisfied

Q) Please tell me: is the compound O=C(NC(=S)Nc1cccc(Oc2ncc(Cl)cn2)c1)c1ccccc1 at or over 6% in terms of inhibition at 10 µM?
A) Satisfied

Q) Please tell me: is the compound CC(=O)Nc1ccc(NC(=O)Cc2c(C)c3cc4c5c(oc4c(C)c3oc2=O)CCCC5)cc1 at or over 6% in terms of inhibition at 10 µM?
A) Satisfied

Q) Please tell me: is the compound CC(NC(=O)C(NC(=O)OCc1ccccc1)C(C)C)C(=O)OCCCCCNc1ccc(NCCCCCO)c2c1C(=O)c1ccccc1C2=O (centres unmarked) at or over 6% in terms of inhibition at 10 µM?
A) Not satisfied

Q) Please tell me: is the compound CS(=O)(=O)Nc1ccc(NC(=O)c2ccc3c(c2)C(=O)c2c(NCCOCCN)ccc(NCCOCCN)c2C3=O)cc1 at or over 6% in terms of inhibition at 10 µM?
A) Satisfied

Q) Please tell me: is the compound COc1cccc(Nc2ccc3cc(-c4cccs4)c(=O)oc3n2)c1 at or over 6% in terms of inhibition at 10 µM?
A) Not satisfied

Q) Please tell me: is the compound O=C(O)c1cccc2cc3c(C(=O)O)cccc3cc12 at or over 6% in terms of inhibition at 10 µM?
A) Not satisfied

Q) Please tell me: is the compound Cc1c(CC(=O)Nc2ccc(C(N)=O)cc2)c(=O)oc2c(C)c3oc4c(c3cc12)CCCC4 at or over 6% in terms of inhibition at 10 µM?
A) Satisfied

Q) Please tell me: is the compound O=C1c2ccccc2C(=O)c2c(NCCNCCO)ccc(F)c21 at or over 6% in terms of inhibition at 10 µM?
A) Satisfied

Q) Please tell me: is the compound O=C(CN1CCCCC1)Nc1ccc(NC(=O)CN2CCCCC2)c2c1C(=O)c1ccccc1C2=O at or over 6% in terms of inhibition at 10 µM?
A) Satisfied

Q) Please tell me: is the compound O=C(CN1CCCCC1)Nc1ccc(NC(=O)CN2CCCCC2)c2c1C(=O)c1c(O)ccc(O)c1C2=O at or over 6% in terms of inhibition at 10 µM?
A) Satisfied

Q) Please tell me: is the compound COc1ccc2c(C)c(CC(=O)Nc3ccc(C(=O)O)cc3)c(=O)oc2c1 at or over 6% in terms of inhibition at 10 µM?
A) Not satisfied

Q) Please tell me: is the compound c1ccc(-c2cccc(-c3cc(-c4ccccc4)ncn3)c2)cc1 at or over 6% in terms of inhibition at 10 µM?
A) Not satisfied

Q) Please tell me: is the compound CSc1cccc(Nc2ccc3cc(-c4cccs4)c(=O)oc3n2)c1 at or over 6% in terms of inhibition at 10 µM?
A) Not satisfied

Q) Please tell me: is the compound O=c1oc2ncnc(Nc3cccc(-c4ccccc4)c3)c2cc1-c1c(Cl)cccc1Cl at or over 6% in terms of inhibition at 10 µM?
A) Satisfied

Q) Please tell me: is the compound CCc1cnc(Oc2cccc(NC(=O)NC(=O)c3ccccc3)c2)nc1 at or over 6% in terms of inhibition at 10 µM?
A) Not satisfied

Q) Please tell me: is the compound Cc1oc2c(C)c3oc(=O)c(CC(=O)NCc4ccccc4Cl)c(C)c3cc2c1C at or over 6% in terms of inhibition at 10 µM?
A) Satisfied

Q) Please tell me: is the compound O=C(O)c1ccc(-c2cc(-c3cccc(C(F)(F)F)c3)nc(O)n2)cc1 at or over 6% in terms of inhibition at 10 µM?
A) Satisfied

Q) Please tell me: is the compound O=C(O)c1ccc(NS(=O)(=O)c2ccc(Cl)cc2[N+](=O)[O-])cc1 at or over 6% in terms of inhibition at 10 µM?
A) Satisfied

Q) Please tell me: is the compound CC(=O)Nc1ccc(O)c2c1C(=O)c1ccccc1C2=O at or over 6% in terms of inhibition at 10 µM?
A) Not satisfied

Recorded values, source paper PMC9367601.
